Target: aggregated synthetic Aβ40 (Homo sapiens)
Construct: Synthetic Aβ40 is aggregated at a concentration of 50 μM
Assay: Thiazin-red R displacement fluorescence assay on aggregated A-beta
Conditions: displacement of Thiazin-red R from aggregated Aβ40; compound 0.3 nM to 10000 nM; 30 min room temperature; Ex 531 nm/Em 595 nm
Binary label based on IC50 with cut-off 600 nM: below gives 1.0, not below gives 0.0.

input: Would you kindly verify if IC50 of COc1cc(/C=c2\sc3nc(-c4ccccc4)cn3c2=O)cc(F)c1O is strictly less than 600 nM?
output: 0.0

input: Would you kindly verify if IC50 of COc1cc(/C=c2\sc3nc(-c4ccc(C(=O)N5CCC(F)CC5)cc4)cn3c2=O)cc(Cl)c1O is strictly less than 600 nM?
output: 1.0

input: Would you kindly verify if IC50 of COc1cc(/C=c2\sc3nc(-c4cccc(C(=O)N(C)CCc5cccc(F)c5)c4)cn3c2=O)cc(Cl)c1O is strictly less than 600 nM?
output: 0.0

input: Would you kindly verify if IC50 of COc1cc(/C=c2\sc3nc(-c4ccncc4)cn3c2=O)cc(F)c1O is strictly less than 600 nM?
output: 0.0

input: Would you kindly verify if IC50 of CCCOc1cc(/C=c2\sc3nc(-c4ccncc4)cn3c2=O)cc(Cl)c1O is strictly less than 600 nM?
output: 0.0

---
input: Would you kindly verify if IC50 of COc1cc(/C=c2\sc3nc(-c4cccc(OC(F)(F)F)c4)cn3c2=O)cc(Cl)c1O is strictly less than 600 nM?
output: 1.0

input: Would you kindly verify if IC50 of CCCN(C)C(=O)c1ccc(-c2cn3c(=O)/c(=C/c4cc(Cl)c(O)c(OC)c4)sc3n2)cc1 is strictly less than 600 nM?
output: 1.0

input: Would you kindly verify if IC50 of COc1cc(/C=c2\sc3nc(-c4cc(C)nc(C)c4)cn3c2=O)cc(F)c1O is strictly less than 600 nM?
output: 1.0

---

Biological target: aggregated synthetic Aβ40 (Homo sapiens, UniProt P05067)
Construct: Synthetic Aβ40 is aggregated at a concentration of 50 μM
Sequence (P05067 672-711 limits assumed): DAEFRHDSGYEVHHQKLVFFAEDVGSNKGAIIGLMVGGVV
Test: Thiazin-red R displacement fluorescence assay on aggregated A-beta
Conditions: displacement of Thiazin-red R from aggregated Aβ40; compound 0.3 nM to 10000 nM; 30 min room temperature; Ex 531 nm/Em 595 nm
Measurement Type: pIC50
pIC50 is a log-scale quantity: -log10 of the concentration expressed in molar.

Example results:
Entry COc1cc(/C=c2\sc3nc(-c4ccccc4C)cn3c2=O)cc(F)c1O ; pIC50 = 6.15

Entry COc1cc(/C=c2\sc3nc(-c4cccc(C(=O)NCCF)c4)cn3c2=O)cc(Cl)c1O ; pIC50 = 5.97

Entry COc1cc(/C=c2\sc3nc(-c4cccc(Cl)c4)cn3c2=O)cc(F)c1O ; pIC50 = 6.39

---
Entry COc1cc(/C=c2\sc3nc(-c4ccc(C(=O)OCCF)cc4)cn3c2=O)cc(Cl)c1O ; pIC50 = 7.42

Entry COc1cc(/C=c2\sc3nc(-c4cccnc4)cn3c2=O)cc(Br)c1O ; pIC50 = 6.64

Entry COc1cc(/C=c2\sc3nc(-c4ccc(C(=O)N(C)CCF)cc4)cn3c2=O)cc(Cl)c1O ; pIC50 = 6.21

Entry COc1cc(/C=c2\sc3nc(-c4ccc(C#N)cc4)cn3c2=O)cc(Cl)c1O ; pIC50 = 8.22

Entry COc1cc(/C=c2\sc3nc(-c4ccccc4)cn3c2=O)cc(Cl)c1O ; pIC50 = 6.07

---

This section presents compounds with their documented pIC50 values.
Biological target: aggregated recombinant human-microtubule associated protein Tau (Homo sapiens)
Construct: Recombinant human-microtubule associated protein Tau purified from E. coli is aggregated at a concentration of 5 μM with Arachidonic Acid (100 μM) in Tris 10 mM pH8, 24 h at 37° C
Test: Thiazin-red R displacement fluorescence assay on aggregated Tau
Conditions: displacement of Thiazin-red R from aggregated Tau; compound 0.3 nM to 10000 nM; 30 min room temperature; Ex 531 nm/Em 595 nm
pIC50 is a log-scale quantity: -log10 of the concentration expressed in molar.

Example results:
Entry COc1cc(/C=c2\sc3nc(-c4ccccc4)cn3c2=O)cc(F)c1O ; pIC50 = 7.29

Entry COc1cc(/C=c2\sc3nc(-c4ccnc(C)c4)cn3c2=O)cc(Cl)c1O ; pIC50 = 8.89

Entry COc1cc(/C=c2\sc3nc(-c4ccc5c(c4)OCCO5)cn3c2=O)cc(Cl)c1O ; pIC50 = 8.05

Entry COc1cc(/C=c2\sc3nc(-c4ccc(OCCF)cc4)cn3c2=O)cc(Cl)c1O ; pIC50 = 8.22

---
Entry COc1cc(/C=c2\sc3nc(-c4ccc(Cl)cc4)cn3c2=O)cc(O)c1O ; pIC50 = 8.30

Entry COc1cc(/C=c2\sc3nc(-c4cc(C)on4)cn3c2=O)cc(Cl)c1O ; pIC50 = 7.74

Entry COc1cc(/C=c2\sc3nc(-c4ccc(Cl)cc4)cn3c2=O)ccc1O ; pIC50 = 7.31

Entry COc1cc(/C=c2\sc3nc(-c4ccc(C(=O)NCCCF)cc4)cn3c2=O)cc(Cl)c1O (single isomer, unassigned) [Example 133] ; pIC50 = 8.70

---

Target: aggregated recombinant human-microtubule associated protein Tau (Homo sapiens)
Construct: Recombinant human-microtubule associated protein Tau purified from E. coli is aggregated at a concentration of 5 μM with Arachidonic Acid (100 μM) in Tris 10 mM pH8, 24 h at 37° C
Test: Thiazin-red R displacement fluorescence assay on aggregated Tau
Conditions: displacement of Thiazin-red R from aggregated Tau; compound 0.3 nM to 10000 nM; 30 min room temperature; Ex 531 nm/Em 595 nm
pIC50: −log10 of the molar value.
Decision: pIC50 >= 8 yields Fulfilled, all other cases yield Not fulfilled.

input: pIC50 >= 8 for COc1cc(/C=c2\sc3nc(-c4cccc(OC(F)(F)F)c4)cn3c2=O)cc(Cl)c1O ?
output: Fulfilled

input: pIC50 >= 8 for COc1cc(/C=c2\sc3nc(-c4ccc(OC(F)F)cc4)cn3c2=O)cc(Cl)c1O ?
output: Fulfilled

input: pIC50 >= 8 for CNC(=O)c1cccc(-c2cn3c(=O)/c(=C/c4cc(Cl)c(O)c(OC)c4)sc3n2)c1 ?
output: Fulfilled

---
input: pIC50 >= 8 for COc1cc(/C=c2\sc3nc(-c4ccc(C(=O)NCCNC(=O)OC(C)(C)C)cc4)cn3c2=O)cc(Cl)c1O ?
output: Fulfilled

input: pIC50 >= 8 for COc1cc(/C=c2\sc3nc(-c4ccncc4)cn3c2=O)cc(Cl)c1O ?
output: Fulfilled

input: pIC50 >= 8 for CCCOc1cc(/C=c2\sc3nc(-c4cnccn4)cn3c2=O)cc(Cl)c1O ?
output: Not fulfilled

input: pIC50 >= 8 for COc1cccc(-c2cn3c(=O)/c(=C/c4cc(Cl)c(O)c(OC)c4)sc3n2)c1 ?
output: Fulfilled

input: pIC50 >= 8 for COc1cc(/C=c2\sc3nc(-c4ccc(C(=O)OCCCF)cc4)cn3c2=O)cc(Cl)c1O ?
output: Fulfilled

input: pIC50 >= 8 for CCCNC(=O)c1cccc(-c2cn3c(=O)/c(=C/c4cc(Cl)c(O)c(OC)c4)sc3n2)c1 ?
output: Fulfilled

input: pIC50 >= 8 for COc1cc(/C=c2\sc3nc(-c4cccnc4)cn3c2=O)cc(F)c1O ?
output: Not fulfilled

---

Molecular target: aggregated recombinant human-microtubule associated protein Tau (Homo sapiens, UniProt P10636)
Construct: Recombinant human-microtubule associated protein Tau purified from E. coli is aggregated at a concentration of 5 μM with Arachidonic Acid (100 μM) in Tris 10 mM pH8, 24 h at 37° C
Sequence (P10636 whole entry): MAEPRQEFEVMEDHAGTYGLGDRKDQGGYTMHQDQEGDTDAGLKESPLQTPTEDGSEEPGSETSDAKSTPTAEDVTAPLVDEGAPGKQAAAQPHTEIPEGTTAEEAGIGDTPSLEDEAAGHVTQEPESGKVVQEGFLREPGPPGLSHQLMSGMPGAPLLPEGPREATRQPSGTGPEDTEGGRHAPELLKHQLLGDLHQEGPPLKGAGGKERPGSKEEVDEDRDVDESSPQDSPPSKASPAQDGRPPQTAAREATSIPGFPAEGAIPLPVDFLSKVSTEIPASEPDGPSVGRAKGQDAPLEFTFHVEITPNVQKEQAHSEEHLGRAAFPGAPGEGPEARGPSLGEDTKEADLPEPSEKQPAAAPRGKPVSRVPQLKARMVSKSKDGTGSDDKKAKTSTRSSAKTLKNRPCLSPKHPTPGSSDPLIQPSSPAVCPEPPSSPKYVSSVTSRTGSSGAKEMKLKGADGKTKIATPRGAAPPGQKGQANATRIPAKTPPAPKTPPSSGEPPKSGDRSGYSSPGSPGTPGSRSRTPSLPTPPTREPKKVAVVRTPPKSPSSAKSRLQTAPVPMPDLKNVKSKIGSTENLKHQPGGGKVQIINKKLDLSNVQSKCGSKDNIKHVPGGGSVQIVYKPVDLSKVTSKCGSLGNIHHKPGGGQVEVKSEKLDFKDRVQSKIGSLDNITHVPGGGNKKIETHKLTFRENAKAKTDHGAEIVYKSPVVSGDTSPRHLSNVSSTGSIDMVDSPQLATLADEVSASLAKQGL
Experiment: Thiazin-red R displacement fluorescence assay on aggregated Tau
Conditions: displacement of Thiazin-red R from aggregated Tau; compound 0.3 nM to 10000 nM; 30 min room temperature; Ex 531 nm/Em 595 nm
Measurement Type: pIC50
pIC50 is a log-scale quantity: -log10 of the concentration expressed in molar.

Entry CCCOc1cc(/C=c2\sc3nc(-c4cnc[nH]4)cn3c2=O)cc(Cl)c1O ; pIC50 = 7.22

Entry COc1cc(/C=c2\sc3nc(-c4ccncc4)cn3c2=O)cc(Br)c1O ; pIC50 = 8.89

---
Entry COc1cc(/C=c2\sc3nc(-c4ccccc4C)cn3c2=O)ccc1O ; pIC50 = 6.08

Entry C=CCNC(=O)c1cccc(-c2cn3c(=O)/c(=C/c4cc(Cl)c(O)c(OC)c4)sc3n2)c1 ; pIC50 = 7.80

Entry COc1cccc(-c2cn3c(=O)/c(=C/c4cc(F)c(O)c(OC)c4)sc3n2)c1 ; pIC50 = 7.77

Entry COc1cc(/C=c2\sc3nc(-c4cccc(F)c4)cn3c2=O)cc(F)c1O ; pIC50 = 7.72

Entry COc1cc(/C=c2\sc3nc(-c4ccc(C(=O)N(C)CCCF)cc4)cn3c2=O)cc(Cl)c1O ; pIC50 = 8.15

Entry COc1cc(/C=c2\sc3nc(-c4ccnc(C)c4)cn3c2=O)cc(Br)c1O ; pIC50 = 9.00

Entry COc1cc(/C=c2\sc3nc(-c4ccc(N(C)C)cc4)cn3c2=O)cc(Cl)c1O ; pIC50 = 7.52
